Reported Kd by item:
# target.under.test: T1, recombinant His-tagged cynomolgus PD-1 (Acro Biosystems) (cynomolgus, UniProt B0LAJ3 25-170)
# T1 construct: His-tagged; also called Cyno PD-1; not shown: His tag (and any linker) of the Acro Biosystems product
# method.summary: SPR Carterra LSA;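 further: antibodies or fusion proteins amine-coupled on an HC30M chip, soluble His-tagged human or cynomolgus PD-1 titrated over them, non-regenerative kinetics, constants fitted from titration curves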
Give a bare numeral; the unit nM is implied.

OMC476pG10-hIgG4 (antibody, V domains shown) VH: DVQLVESGGGVVRPGGSLRLSCAASGFTFSIYAMSWVRQAPGEGLEWVSHISASGGSTYYADSVKGRFAISRDNSKNTLYLQMNSLRAEDTAVYYCTTNLGSDYWGLGTLVTVSS VL: QSVLTQPPSASGTPGQRVTISCSGSYSDIGTNYVYWYQQLPGTAPKLLIFATDRRPSGVPDRFSGSKSGTSASLAISGLQSEDEADYYCGTWDDSLNVWVFGGGTKLTVLG	487

Request the reported Kd associated with OMC.1.D6-hIgG4 (antibody, V domains shown) VH: EVQLLESGGGLVQPGGSLRLSCAASGFTFSDYYMSWVRQAPGKGLEWVSAISSSGGTIFYADSVKGRFIISRDNSKNTLYLQMNSLRAEDTAVYYCAKHKWNDVYYDAMDVWGQGTTVTVSS VL: QSVLTQPPSASGTPGQRVTISCSGSNSNIGRNLVNWYQQLPGTAPKLLIYTVDQRPSGVPDRFSGSKSGTSASLAISGLASEDEADYYCAAWDSSLNSWVFGGGTKLTVLG
694

Now the same for Anti-PD-1 clone J110 hIgG1 (antibody, V domains shown) VH: DVQLQESGPGLVKPSQSLSLTCTVTGHSITSDYAWNWIRQFPGDKLEWMGYISYSGYTTYNPSLKSRVSITRDTSKNQFFLQLNSVTTEDTATYFCARDLDYGPWFAYWGQGTLVTVSA VL: DIQMTQSPASLSASVGETVTLTCRASENIHNYLAWYQQKQGKSPQLLVYNVKTLADGVPSRFSGSGSGTQYSLKINSLQPEDFGSYYCQHFWSSPWTFGGGTKVEIKR
1200

Same thing, different binder: D12-hIgG4 (antibody, V domains shown) VH: DVQLVESGGGLVQPGGSLRLSCAASGFTFDISAMSWVRQAPGKGLEWVSTISGSAYSTYYADSVKGRFTISRDNSKSTLYLQMNSLRAEDTAVYYCAREIFSDYWGLGTLVTVSS VL: QSVLTQPPSASGTPGQRVTISCSGNTSNIGRESVYWYQQLPGTAPKLLIYSNVQRPSGVPDRFSGSKSGTSASLAISGLQSEDEADYYCGTWDDSLNGWVFGGGTKLTVLG
272

What about Abz1mod-hIgG4 (antibody, V domains shown) VH: QVQLVQSGSELKKPGASVKVSCKASGYTFTSYAMHWVRQAPGQGLEWMGYISPFTGRATYAQGFTGRFVFSLDTSVSTAYLQISSLKAEDTAVYYCARDYDYRYYYAMDYWGQGTTVTVSS VL: EIVLTQSPDFQSVTPKEKVTITCRASQSIPPQFLHWYQQKPDQSPKLLIKAASQRASGVPSRFSGSGSGTDFTLTINSLEAEDAATYYCHQFHSSPLTFGGGTKLEIKR ?
3.7
